# System: infectious agents (strains tested)
# Assay comment: organism not typed
# Type: cell-based
# Condition info: Apophysomyces spp; read-out: MIC[90]

Compound | Target or system | MIC
C[C@@H]1[C@H](O)[C@@H](C)/C=C/C=C/C=C/C=C/C=C/C=C/C=C/[C@H](O[C@@H]2O[C@H](C)[C@@H](O)[C@H](N)[C@@H]2O)C[C@@H]2O[C@](O)(C[C@@H](O)C[C@@H](O)[C@H](O)CC[C@@H](O)C[C@@H](O)CC(=O)O[C@H]1C)C[C@H](O)[C@H]2C(=O)O [Amphotericin] | infectious agents (strains tested) | 0.031 to 4 µg/mL
CCC([C@@H](C)O)n1ncn(-c2ccc(N3CCN(c4ccc(OC[C@@H]5CO[C@@](Cn6cncn6)(c6ccc(F)cc6F)C5)cc4)CC3)cc2)c1=O (stereo partly shown) [Posaconazole] | infectious agents (strains tested) | 0.031 to 4 µg/mL
CCC(C)n1ncn(-c2ccc(N3CCN(c4ccc(OCC5COC(Cn6cncn6)(c6ccc(Cl)cc6Cl)O5)cc4)CC3)cc2)c1=O (stereo not shown) [Itraconazole] | infectious agents (strains tested) | 0.031 to 8 µg/mL
C[C@@H](c1ncncc1F)[C@](O)(Cn1cncn1)c1ccc(F)cc1F [Voriconazole] | infectious agents (strains tested) | 16 to 128 µg/mL
